Molecular target: Sucrase-isomaltase, intestinal (Homo sapiens, UniProt P14410)
Sequence (P14410 2-1007 limits assumed): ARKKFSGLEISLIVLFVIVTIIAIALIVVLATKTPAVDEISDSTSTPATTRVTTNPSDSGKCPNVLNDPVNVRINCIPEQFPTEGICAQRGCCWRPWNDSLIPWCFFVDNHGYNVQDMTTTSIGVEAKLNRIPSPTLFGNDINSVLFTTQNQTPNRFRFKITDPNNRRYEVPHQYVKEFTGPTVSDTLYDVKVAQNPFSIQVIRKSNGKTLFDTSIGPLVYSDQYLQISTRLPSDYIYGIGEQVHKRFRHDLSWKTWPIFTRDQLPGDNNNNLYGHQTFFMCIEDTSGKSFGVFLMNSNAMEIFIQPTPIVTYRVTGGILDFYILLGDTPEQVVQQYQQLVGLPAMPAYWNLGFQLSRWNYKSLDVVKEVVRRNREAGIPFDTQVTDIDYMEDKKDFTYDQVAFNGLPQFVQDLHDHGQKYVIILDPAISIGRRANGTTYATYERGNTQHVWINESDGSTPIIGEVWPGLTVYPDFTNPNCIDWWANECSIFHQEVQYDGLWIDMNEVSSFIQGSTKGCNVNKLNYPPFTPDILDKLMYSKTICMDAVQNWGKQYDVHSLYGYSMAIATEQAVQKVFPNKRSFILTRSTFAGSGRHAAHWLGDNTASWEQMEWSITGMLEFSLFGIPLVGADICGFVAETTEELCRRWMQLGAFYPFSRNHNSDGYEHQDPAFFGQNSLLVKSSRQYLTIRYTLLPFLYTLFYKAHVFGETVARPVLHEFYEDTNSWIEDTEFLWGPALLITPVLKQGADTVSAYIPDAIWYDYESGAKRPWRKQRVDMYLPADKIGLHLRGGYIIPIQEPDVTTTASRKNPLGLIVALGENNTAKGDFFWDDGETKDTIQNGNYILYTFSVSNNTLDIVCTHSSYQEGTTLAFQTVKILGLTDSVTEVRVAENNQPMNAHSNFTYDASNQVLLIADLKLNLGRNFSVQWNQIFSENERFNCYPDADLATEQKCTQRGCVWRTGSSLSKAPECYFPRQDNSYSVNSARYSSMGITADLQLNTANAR
Sequence (P14410 1008-1827 limits assumed): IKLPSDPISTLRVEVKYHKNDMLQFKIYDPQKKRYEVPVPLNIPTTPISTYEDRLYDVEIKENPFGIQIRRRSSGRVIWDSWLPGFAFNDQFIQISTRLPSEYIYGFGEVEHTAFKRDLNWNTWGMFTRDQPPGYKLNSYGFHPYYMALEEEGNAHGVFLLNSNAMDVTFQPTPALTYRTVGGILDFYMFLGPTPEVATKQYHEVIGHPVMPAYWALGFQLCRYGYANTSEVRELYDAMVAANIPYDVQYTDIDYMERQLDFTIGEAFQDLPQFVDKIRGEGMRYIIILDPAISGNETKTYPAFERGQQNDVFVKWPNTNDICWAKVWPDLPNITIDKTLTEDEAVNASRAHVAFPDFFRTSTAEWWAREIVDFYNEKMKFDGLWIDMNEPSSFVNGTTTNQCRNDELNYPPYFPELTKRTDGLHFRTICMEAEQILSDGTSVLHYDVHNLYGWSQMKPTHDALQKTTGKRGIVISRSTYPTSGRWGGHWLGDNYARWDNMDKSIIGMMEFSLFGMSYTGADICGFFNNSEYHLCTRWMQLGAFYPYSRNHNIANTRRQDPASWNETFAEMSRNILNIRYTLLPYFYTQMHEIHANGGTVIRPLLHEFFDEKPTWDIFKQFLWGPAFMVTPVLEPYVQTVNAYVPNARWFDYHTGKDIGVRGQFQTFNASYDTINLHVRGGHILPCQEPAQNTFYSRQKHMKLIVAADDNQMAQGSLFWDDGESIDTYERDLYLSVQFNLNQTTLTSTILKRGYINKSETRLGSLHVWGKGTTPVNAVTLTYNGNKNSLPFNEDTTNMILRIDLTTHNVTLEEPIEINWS
Test: Inhibition of human intestinal sucrase in human Caco-2 cell membrane
measured attribute: pIC50
pIC50 is a log-scale quantity: -log10 of the concentration expressed in molar.

(Q) Param item = O=c1cc(-c2ccccc2)oc2cc(O)c(O)c(O)c12 ; retrieve measured pIC50.
(A) 4.46
